System: integrin β7 on Tregs
assay.comment: Dose response of integrin β7 induction on expanded Tregs
Assay type: cell-based
condition.summary: Homo sapiens; Tregs in in vitro culture, FIG. 2c; read-out: EC50 to induce the expression of integrin β7
measurement.label: EC50 (nM)

1. CC1=C(/C=C/C(C)=C/C=C/C(C)=C/C(=O)O)C(C)(C)CCC1 [ATRA, all-trans retinoic acid, reference compound]
2. CCOc1c(Cl)cc(C(=O)Nc2ccc(C(=O)O)c(C)c2)cc1OC(C)C [RAR568]
Exercise: Of the two listed items, 1 and 2 , which carries the larger EC50 figure? Answer = label.
Solution: 1

* * *

system.name: UniProt:P10276
Sequence (P10276 whole entry): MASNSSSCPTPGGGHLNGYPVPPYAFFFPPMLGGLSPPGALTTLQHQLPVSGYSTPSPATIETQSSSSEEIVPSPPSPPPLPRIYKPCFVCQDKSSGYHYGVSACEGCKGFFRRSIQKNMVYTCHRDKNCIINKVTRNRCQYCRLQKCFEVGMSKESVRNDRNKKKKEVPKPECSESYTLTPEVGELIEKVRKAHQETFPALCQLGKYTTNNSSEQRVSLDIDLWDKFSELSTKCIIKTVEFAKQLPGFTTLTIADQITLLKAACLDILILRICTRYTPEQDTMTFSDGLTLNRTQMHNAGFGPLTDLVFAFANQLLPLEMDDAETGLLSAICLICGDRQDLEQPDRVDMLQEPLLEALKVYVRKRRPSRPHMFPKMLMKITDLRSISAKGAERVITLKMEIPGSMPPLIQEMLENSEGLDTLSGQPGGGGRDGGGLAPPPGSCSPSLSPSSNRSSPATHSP
assay.comment: Selectivity profile against human RARs (RARα agonism)
Type: biochemical
measurement.label: pEC50
For clarity, pEC50 is expressed as the negative log10 of concentration in mol/L.

Exercise: Quick check: pEC50 on UniProt:P10276, item `CCOc1c(Cl)cc(C(=O)Nc2ccc(C(=O)O)c(C)c2)cc1OC(C)C` ?
Solution: 9.23

From: patent US20220062340A1
